- Test system: 926638-142-R-J1-PDC complex spheroid viability
- Test Method Notes: Anticancer human tumor 926638-142-R-J1-PDC patient-derived endometrial carcinoma cell line growth inhibition [POLQ]
- Test Parameters: second compound 10 µM; first compound 0.1 µM; active compounds read low
Some compounds, each annotated with its measured viability, T/C.
State just the number; it will be interpreted in %.

C=CCn1c(=O)c2cnc(Nc3ccc(N4CCN(C)CC4)cc3)nc2n1-c1cccc(C(C)(C)O)n1 + Cc1cccc(N(C)C(=O)C2C(O)CCN2c2nc(C)cc(C(F)(F)F)c2C#N)c1    76.2
C=CC(=O)N1CCN(c2nc(=O)n(-c3c(C)ccnc3C(C)C)c3nc(-c4c(O)cccc4F)c(F)cc23)C(C)C1 (stereo not given) + Nc1ccc(C#CCN(C(=O)Cc2ncc(C(F)(F)F)cc2C(F)(F)F)c2ccc(F)cc2)nn1    98.5
CCc1cc2c(N3CCc4c(cc(Cn5ccnc5)cc4-c4cn(C)nc4C(F)(F)F)C3=O)ccnc2c(OC)n1 + Cc1cccc(N(C)C(=O)C2C(O)CCN2c2nc(C)cc(C(F)(F)F)c2C#N)c1    59.4
CC(C)n1c(=O)n(C)c2cnc3cc(F)c(-c4ccc(OCCCN5CCCCC5)nc4)cc3c21 + COC1C(OC(N)=O)C(O)C(Oc2ccc3c(O)c(NC(=O)c4ccc(O)c(CC=C(C)C)c4)c(=O)oc3c2C)OC1(C)C    104

We now examine a further compound.
IN: Query viability, T/C for CC[C@@]1(O)C(=O)OCc2c1cc1n(c2=O)Cc2cc3c(CN(C)C)c(O)ccc3nc2-1 + COC1C(OC(N)=O)C(O)C(Oc2ccc3c(O)c(NC(=O)c4ccc(O)c(CC=C(C)C)c4)c(=O)oc3c2C)OC1(C)C
OUT: 44.2

====

- System: 926638-142-R-J1-PDC complex spheroid viability
- Test Method Notes: Anticancer human tumor 926638-142-R-J1-PDC cell line growth inhibition [POLQ]
- Test Parameters: second compound 3.16 µM; first compound 0.01 µM; active compounds read low
Exam item: assign TRUE to entries whose viability, T/C is below 80% and FALSE to entries at or above 80%. Note that a value of exactly 80% receives FALSE.

// below: answered compounds
C=CCn1c(=O)c2cnc(Nc3ccc(N4CCN(C)CC4)cc3)nc2n1-c1cccc(C(C)(C)O)n1 + COC1C(OC(N)=O)C(O)C(Oc2ccc3c(O)c(NC(=O)c4ccc(O)c(CC=C(C)C)c4)c(=O)oc3c2C)OC1(C)C    FALSE
CC[C@@]1(O)C(=O)OCc2c1cc1n(c2=O)Cc2cc3c(CN(C)C)c(O)ccc3nc2-1 + Cc1cccc(N(C)C(=O)C2C(O)CCN2c2nc(C)cc(C(F)(F)F)c2C#N)c1    TRUE
C=CCn1c(=O)c2cnc(Nc3ccc(N4CCN(C)CC4)cc3)nc2n1-c1cccc(C(C)(C)O)n1 + Cc1cccc(N(C)C(=O)C2C(O)CCN2c2nc(C)cc(C(F)(F)F)c2C#N)c1    FALSE

Here is the next item to consider.
IN: # check: viability, T/C < 80% for CC[C@@]1(O)C(=O)OCc2c1cc1n(c2=O)Cc2cc3c(CN(C)C)c(O)ccc3nc2-1 + COC1C(OC(N)=O)C(O)C(Oc2ccc3c(O)c(NC(=O)c4ccc(O)c(CC=C(C)C)c4)c(=O)oc3c2C)OC1(C)C
OUT: FALSE

====

- Tested on: 926638-142-R-J1-PDC complex spheroid viability
- Test Method Notes: Anticancer human tumor 926638-142-R-J1-PDC cell line growth inhibition [POLQ];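 note: spheroids exposed to drugs for one week before readout; percent viability relative to DMSO vehicle control wells set as 100%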
- Test Parameters: second compound 0.0316 µM; first compound 3.16 µM; active compounds read low
Some molecules, each annotated with its measured viability, T/C.

CC1COCCN1c1cc(C2(O)CC3CCC(C2)O3)c2cnn(-c3ccn[nH]3)c2n1 (stereo not given) + COC1C(OC(N)=O)C(O)C(Oc2ccc3c(O)c(NC(=O)c4ccc(O)c(CC=C(C)C)c4)c(=O)oc3c2C)OC1(C)C    7.23%
O=C(Nc1ccc(O)c(NS(=O)(=O)c2ccc(F)cc2)c1)c1ccc(-c2ccccc2)cc1 + Cc1cccc(N(C)C(=O)C2C(O)CCN2c2nc(C)cc(C(F)(F)F)c2C#N)c1    90.5%
O=C(Nc1ccc(O)c(NS(=O)(=O)c2ccc(F)cc2)c1)c1ccc(-c2ccccc2)cc1 + COC1C(OC(N)=O)C(O)C(Oc2ccc3c(O)c(NC(=O)c4ccc(O)c(CC=C(C)C)c4)c(=O)oc3c2C)OC1(C)C    103%
COc1cc2cc(C(=O)CCC(=O)O)sc2cc1OC + Nc1ccc(C#CCN(C(=O)Cc2ncc(C(F)(F)F)cc2C(F)(F)F)c2ccc(F)cc2)nn1    104%

We now examine a further molecule.
IN: Query viability, T/C for C#Cc1c(F)ccc2cc(O)cc(-c3ncc4c(N5CC6CCC(C5)N6)nc(OCC56CCCN5CC(F)C6)nc4c3F)c12 (stereo not given) + COC1C(OC(N)=O)C(O)C(Oc2ccc3c(O)c(NC(=O)c4ccc(O)c(CC=C(C)C)c4)c(=O)oc3c2C)OC1(C)C
OUT: 60.1%

====

- Tested on: 926638-142-R-J1-PDC complex spheroid viability
- Test Method Notes: Anticancer human tumor 926638-142-R-J1-PDC cell line growth inhibition [POLQ];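 note: spheroids exposed to drugs for one week before readout; percent viability relative to DMSO vehicle control wells set as 100%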
- Test Parameters: second compound 1 µM; first compound 0.1 µM; active compounds read low
Parameter: viability, T/C (%)
State just the number; it will be interpreted in %.

Example results:
CCc1cc2c(N3CCc4c(cc(Cn5ccnc5)cc4-c4cn(C)nc4C(F)(F)F)C3=O)cc(C)nc2c(OC)n1 + Cc1cccc(N(C)C(=O)C2C(O)CCN2c2nc(C)cc(C(F)(F)F)c2C#N)c1    80.6
CC1COCCN1c1cc(-c2ccnn2C)c2ccnc(-c3ccn[nH]3)c2n1 (stereo not drawn) + COC1C(OC(N)=O)C(O)C(Oc2ccc3c(O)c(NC(=O)c4ccc(O)c(CC=C(C)C)c4)c(=O)oc3c2C)OC1(C)C    92.5

We now examine a further compound.
IN: Lab note: 926638-142-R-J1-PDC complex spheroid viability assay, enter viability, T/C for O=C(Nc1ccc(O)c(NS(=O)(=O)c2ccc(F)cc2)c1)c1ccc(-c2ccccc2)cc1 + COC1C(OC(N)=O)C(O)C(Oc2ccc3c(O)c(NC(=O)c4ccc(O)c(CC=C(C)C)c4)c(=O)oc3c2C)OC1(C)C here
OUT: 88.4

====

- Tested on: 926638-142-R-J1-PDC complex spheroid viability
- Test Method Notes: Anticancer human tumor 926638-142-R-J1-PDC cell line growth inhibition [POLQ];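 note: spheroids exposed to drugs for one week before readout; percent viability relative to DMSO vehicle control wells set as 100%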
- Test Parameters: second compound 0.316 µM; first compound 0.00316 µM; active compounds read low
Some molecules, each annotated with its measured viability, T/C.
State just the number; it will be interpreted in %.

CC[C@@]1(O)C(=O)OCc2c1cc1n(c2=O)Cc2cc3c(CN(C)C)c(O)ccc3nc2-1 + Cc1cccc(N(C)C(=O)C2C(O)CCN2c2nc(C)cc(C(F)(F)F)c2C#N)c1    70.4
Cn1ncnc1[C@H]1c2n[nH]c(=O)c3cc(F)cc(c23)N[C@@H]1c1ccc(F)cc1 + Cc1cccc(N(C)C(=O)C2C(O)CCN2c2nc(C)cc(C(F)(F)F)c2C#N)c1    92.9
Cn1ncnc1[C@H]1c2n[nH]c(=O)c3cc(F)cc(c23)N[C@@H]1c1ccc(F)cc1 + Nc1ccc(C#CCN(C(=O)Cc2ncc(C(F)(F)F)cc2C(F)(F)F)c2ccc(F)cc2)nn1    83.6
CC[C@@]1(O)C(=O)OCc2c1cc1n(c2=O)Cc2cc3c(CN(C)C)c(O)ccc3nc2-1 + COC1C(OC(N)=O)C(O)C(Oc2ccc3c(O)c(NC(=O)c4ccc(O)c(CC=C(C)C)c4)c(=O)oc3c2C)OC1(C)C    77.9

IN: Query viability, T/C for C=CCn1c(=O)c2cnc(Nc3ccc(N4CCN(C)CC4)cc3)nc2n1-c1cccc(C(C)(C)O)n1 + COC1C(OC(N)=O)C(O)C(Oc2ccc3c(O)c(NC(=O)c4ccc(O)c(CC=C(C)C)c4)c(=O)oc3c2C)OC1(C)C
OUT: 88

====

- Tested on: 926638-142-R-J1-PDC complex spheroid viability
- Test Method Notes: Anticancer human tumor 926638-142-R-J1-PDC cell line growth inhibition [POLQ];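 note: spheroids exposed to drugs for one week before readout; percent viability relative to DMSO vehicle control wells set as 100%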
- Test Parameters: second compound 0.0316 µM; first compound 1 µM; active compounds read low
Some molecules, each annotated with its measured viability, T/C.

IN: Query viability, T/C for COc1cccc(OCCCN)c1-c1cc(Nc2cnc(C#N)cn2)n[nH]1 + Cc1cccc(N(C)C(=O)C2C(O)CCN2c2nc(C)cc(C(F)(F)F)c2C#N)c1
OUT: 36%

IN: Query viability, T/C for Nc1ccn(C2OC(CO)C(O)C2(F)F)c(=O)n1 (stereo not drawn) + Cc1cccc(N(C)C(=O)C2C(O)CCN2c2nc(C)cc(C(F)(F)F)c2C#N)c1
OUT: 62.1%

IN: Query viability, T/C for CCc1cc2c(N3CCc4c(cc(Cn5ccnc5)cc4-c4cn(C)nc4C(F)(F)F)C3=O)cc(C)nc2c(OC)n1 + Nc1ccc(C#CCN(C(=O)Cc2ncc(C(F)(F)F)cc2C(F)(F)F)c2ccc(F)cc2)nn1
OUT: 43.6%
